assay_conditions: buffer; pH 7.4; 200.0 µM
observed_property: solubility kinetic

CC(C)N(C(=O)Cc1ccccc1[N+](=O)[O-])C(C)C: > 39.6 µg/mL
O=C(Cn1cc([N+](=O)[O-])ccc1=O)N1CCCc2ccccc21: > 47 µg/mL
CCOc1ccccc1NC(=O)c1cc2ccccc2oc1=O: < 0.7 µg/mL

----------
assay_conditions: buffer; pH 7.4; 200.0 µM
observed_property: solubility kinetic

Cc1cc(C=C2C(=O)NC(=O)NC2=O)c(C)n1-c1ccncc1: > 46.5 µg/mL
CCOC(=O)C1CCN(S(=O)(=O)c2c(Cl)ccc3nonc23)CC1: > 56.1 µg/mL
OCCC1CN(Cc2nc3ccccc3[nH]2)CCN1C1CCCC1 (stereo not given): > 49.3 µg/mL
Cc1ccc2cc(/C=N/NC(=O)CN3CCCCC3)c(Cl)nc2c1: > 51.7 µg/mL
CCC1(C)NC(=O)N(/N=C/c2ccc(C)s2)C1=O (stereo not given): > 39.8 µg/mL

----------
assay_conditions: buffer; pH 7.4; 200.0 µM
solubility kinetic listing for selected molecules.
observed_property: solubility kinetic

COc1ccc(NC(=O)COc2ccc3oc(=O)cc(C)c3c2)cc1: < 0.7 µg/mL
COc1ccc(S(=O)(=O)N2CCN(Cc3cccnc3)CC2)cc1: > 52.1 µg/mL
CCN(CC)CC(=O)Nc1ccc(C)cc1C(=O)c1ccccc1: > 48.7 µg/mL
COc1cc2ccccc2cc1C(=O)N1CC(C)OC(C)C1 (stereo not given): > 44.9 µg/mL
CCOC(=O)c1sc(NC(=O)CSC(=S)N2CCN(C)CC2)nc1C: > 60.4 µg/mL

----------
assay_conditions: buffer; pH 7.4; 200.0 µM
observed_property: solubility kinetic

O=C1[C@@H]2CSCN2C(=O)CN1Cc1c(F)cccc1Cl: > 47.2 µg/mL
Cc1cccc(NC(=S)N(CCN(C)C)C(C)c2cccnc2)c1 (stereo not given): > 51.4 µg/mL
Cc1ccc(C(=O)C2CCN(CC(=O)NC3CCCC3)CC2)cc1: > 49.3 µg/mL
CCc1ccc(NC(=O)N[C@H](C(=O)O)C(C)CC)cc1 (stereo not given in full): > 41.8 µg/mL
O=C(/C=C/c1ccc(S(=O)(=O)N2CCOCC2)cc1)NC(CO)C(O)c1ccc([N+](=O)[O-])cc1 (stereo not given): > 73.7 µg/mL

----------
assay_conditions: buffer; pH 7.4; 200.0 µM
solubility kinetic listing for selected compounds.
observed_property: solubility kinetic

N#Cc1ccc(CC(C(=O)O)N2Cc3ccccc3C2=O)cc1 (stereo not given): > 45.9 µg/mL
Cc1ccc(OCC(=O)NCCCNC(=O)c2ccccn2)cc1: > 49.1 µg/mL
O=C(O)c1cccnc1SCC(=O)C12CC3CC(CC(C3)C1)C2: > 49.7 µg/mL
COC(=O)CN1C(=O)c2cccc3cccc1c23: > 36.2 µg/mL
COc1cc(/C=C/C(=O)OCC(=O)NC(=O)NC(C)C)ccc1O: > 50.5 µg/mL

----------
assay_conditions: buffer; pH 7.4; 200.0 µM
observed_property: solubility kinetic (µg/mL)

O=C(/C=C/c1cccnc1)c1ccc(O)cc1: 28.5
O=C(/C=C/c1cccc(F)c1)N1CCN(c2ncccn2)CC1: 12.4
c1ccc(Nc2nc(NCCN3CCOCC3)nc(Nc3ccccc3)n2)cc1: 36
Cc1ccc(OCC(=O)OCC(=O)Nc2ccc3c(c2)OCO3)cc1C: 9.6
Cc1cccc(C(=O)Nc2sc3c(c2C(=O)O)CCCC3)c1: 6.9
CC(=O)Nc1ccc(S(=O)(=O)Nc2ccc(N3CCCCC3)cc2)cc1: 51.9
O=C(Nc1cccc2c1CCCC2)c1ccccc1F: 2.5
Cc1sc(N)nc1C12CC3CC(CC(C3)C1)C2: 3.3
Nc1ccc(N2CCOCC2)cc1C(F)(F)F: 33.9
CCN(CC)CCNC(=O)c1cc(S(C)(=O)=O)ccc1OC.Cl: 52.5
